test: clinical; settings: human, in vivo, 30 mg, AUClast, geometric mean (%CV)
measurement kind: AUC(0-t) (ng·h/mL)
Give the value in ng·h/mL but do not write ng·h/mL after it.

Which measured AUC(0-t) value corresponds to CC[C@@H]1[C@H](F)C(=O)N[C@@H]1COc1nccc2cc(C(N)=O)c(OC)cc12 [PF-06650833] ? 249

----------
experiment: Study 2 (MAD) plasma and urine pharmacokinetics; assay type: in vivo, human; settings: human, plasma, oral, day 1, range across IR 25 to 1000 mg, standard meal; read-out: Median Tmax
measurement kind: Tmax at 1 day

Which value of Tmax at 1 day has been reported for CC[C@@H]1[C@H](F)C(=O)N[C@@H]1COc1nccc2cc(C(N)=O)c(OC)cc12 [PF-06650833] in the records? 2 to 4 h

Where these numbers come from: paper PMC6896740
